target-desc: human adenosine A2A receptor (Homo sapiens)
Construct: membrane preparation
Sequence (P29274 whole entry): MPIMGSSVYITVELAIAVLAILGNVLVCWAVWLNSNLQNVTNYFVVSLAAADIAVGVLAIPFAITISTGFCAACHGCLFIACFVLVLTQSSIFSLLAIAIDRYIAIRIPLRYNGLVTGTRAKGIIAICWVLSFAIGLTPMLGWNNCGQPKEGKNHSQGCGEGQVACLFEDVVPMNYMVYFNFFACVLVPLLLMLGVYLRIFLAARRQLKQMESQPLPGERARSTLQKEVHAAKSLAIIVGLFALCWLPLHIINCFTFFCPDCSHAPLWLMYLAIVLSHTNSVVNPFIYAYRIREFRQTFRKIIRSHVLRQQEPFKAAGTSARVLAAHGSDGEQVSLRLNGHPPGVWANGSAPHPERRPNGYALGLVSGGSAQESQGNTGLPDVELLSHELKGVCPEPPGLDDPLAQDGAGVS
test-description: [3H]-SCH-58261 binding assay, human adenosine A2A receptor
run-conditions: membranes of CHO cells recombinantly expressing the human A2A receptor, Ki from IC50 by Cheng-Prussoff equation, read-out: HA2A KI
Exam item: assign class 1 to entries whose Ki is below 600 nM and class 0 to entries at or above 600 nM. Note that a value of exactly 600 nM receives class 0.

Please let me know if `COc1ccc(-c2ccccc2)c2nc(NC(=O)c3ccc(C(F)(F)F)cc3)nn12` shows Ki below 600 nM. class 0

Please let me know if `COc1cccc(-c2ccc(OC)n3nc(NC(=O)c4ccc(F)cc4)nc23)c1` shows Ki below 600 nM. class 0

Please let me know if `COc1ccc(-c2ccc(F)cc2)c2nc(NC(=O)c3ccc(F)cc3)nn12` shows Ki below 600 nM. class 0

Please let me know if `COc1ccc(Br)c(C(=O)Nc2nc3c(-c4cccc(F)c4)ccc(OC)n3n2)c1` shows Ki below 600 nM. class 0

Please let me know if `COc1cccc(-c2ccc(OC)n3nc(NC(=O)c4ccc(Br)o4)nc23)c1` shows Ki below 600 nM. class 1

Please let me know if `COc1ccc(-c2ccc(F)cc2)c2nc(NC(=O)c3ccccc3F)nn12` shows Ki below 600 nM. class 0

Please let me know if `COc1ccc(-c2ccccc2)c2nc(NC(=O)c3cccc(C)c3)nn12` shows Ki below 600 nM. class 0

Please let me know if `COc1ccc(-c2cccc(F)c2)c2nc(NC(=O)c3ccc(Br)o3)nn12` shows Ki below 600 nM. class 1

Please let me know if `COc1cccc(-c2ccc(OC)n3nc(NC(=O)c4cccs4)nc23)c1` shows Ki below 600 nM. class 1

Please let me know if `COc1cccc(-c2ccc(OC)n3nc(NC(=O)c4ccc(Br)cc4)nc23)c1` shows Ki below 600 nM. class 1

Please let me know if `COc1ccc(-c2ccc(F)cc2)c2nc(NC(=O)c3ccc(Br)cc3)nn12` shows Ki below 600 nM. class 0

Origin of measurements: patent US6693116B2
